- ASSAYED_SYSTEM: KRAS G12D (Homo sapiens, UniProt P01116, G12D)
- Construct: aa1-188 KRAS WT, HRAS WT, NRAS WT, or KRAS containing the G12D
- Sequence (P01116 1-188 isoform P01116-2 G12D): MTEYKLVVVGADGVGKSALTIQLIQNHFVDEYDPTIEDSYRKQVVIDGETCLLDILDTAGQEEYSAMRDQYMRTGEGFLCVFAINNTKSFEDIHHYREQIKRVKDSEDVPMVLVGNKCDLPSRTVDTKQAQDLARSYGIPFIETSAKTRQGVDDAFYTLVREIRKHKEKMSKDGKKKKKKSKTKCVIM
- EXPERIMENT_DESCRIPTION: HTRF nucleotide exchange assay, KRAS G12D
- ASSAY_CONDITIONS: HTRF nucleotide exchange assay (NEA), class symbols
MEASUREMENT_TYPE: IC50

IC50 reading for CCc1c(F)ccc2cc(O)cc(-c3c(F)c4nc(OCC5(CN6CC[C@H](F)C6)CC5)nc(N5CCOCC(C)(O)C5)c4c4cn(C)nc34)c12 (stereo partly drawn) : ≤ 10 nM

IC50 reading for CCc1c(F)ccc2cc(O)cc(-c3c(C)c4nc(OCC5(C)C[C@@H](O)CN5C)nc(N5CCOCC(C)(O)C5)c4c4cn(C)nc34)c12 (stereo partly drawn) : ≤ 10 nM

IC50 reading for CCc1c(F)ccc2cc(O)cc(-c3cc4nc(OC[C@@]56CCCN5C[C@H](F)C6)nc(N5CCOCC(C)(O)C5)c4c4cn(C)nc34)c12 (stereo partly drawn) : ≤ 10 nM

IC50 reading for CCc1c(F)ccc2cc(O)cc(-c3cc4nc(OC[C@@]56CCCN5C[C@H](F)C6)nc(N5CC6C(=O)NC(=O)C6C5)c4c4cn(C)nc34)c12 (stereo partly drawn) : ≤ 10 nM

IC50 reading for CCc1c(F)ccc2cc(O)cc(-c3c(C)c4nc(OCC5(C#N)CCOC5)nc(N5CC6CCC(C5)N6)c4c4cn(C)nc34)c12 (stereo not drawn) : ≤ 10 nM

IC50 reading for CCc1c(F)ccc2cc(O)cc(-c3cc4nc(OCC5(C)C[C@@H](O)CN5C)nc(N5CCCn6nc(C(=O)N(C)C)cc6C5)c4c4cn(C)nc34)c12 (mixture of isomers) : ≤ 10 nM

IC50 reading for "CCc1c(F)ccc2cc(O)cc(-c3c(C)c4nc(OCC5(CF)COC5)nc(N5CCCn6nc(C(=O)N(C)C)cc6C5)c4c4cn(C)nc34)c12" : 10 to 100 nM

IC50 reading for CCc1c(F)ccc2cc(O)cc(-c3c(C)c4nc(OC[C@]5(C)CCCN5)nc(N5CCC[C@@](C)(O)C5)c4c4cn(C)nc34)c12 (mixture of isomers) : ≤ 10 nM

IC50 reading for "CCc1c(F)ccc2cc(O)cc(-c3cc4nc(OC[C@@]56CCCN5C[C@H](F)C6)nc(N5CCCC6(COC6)C5)c4c4cn(C)nc34)c12" : ≤ 10 nM

IC50 reading for "CCc1c(F)ccc2cc(O)cc(-c3cc4nc(OC[C@]5(C)CCCN5)nc(N5CCCn6nc(C(=O)N(C)C)cc6C5)c4c4cn(C)nc34)c12" : 100 to 10000 nM

IC50 reading for CCc1c(F)ccc2cc(O)cc(-c3c(F)c4nc(OCC5(CN(C)CC(F)(F)F)CC5)nc(N5CCOCC(C)(O)C5)c4c4cn(C)nc34)c12 (stereo not drawn) : 100 to 10000 nM

IC50 reading for "CCc1c(F)ccc2cc(O)cc(-c3c(F)c4nc(OC[C@@]56CCCN5C[C@H](F)C6)cc(N5CCCOCC5)c4c4cn(C)nc34)c12" : 100 to 10000 nM

----------
pIC50: −log10 of the molar value.
MEASUREMENT_TYPE: pIC50

pIC50 on KRAS WT (Homo sapiens) for CCc1c(F)ccc2cc(O)cc(-c3cc4nc(OCC56CCCN5CCC6)nc(N5CCCOCC5)c4c4[nH]ncc34)c12 [Example 47] is 5.00 to 7.00

pIC50 on KRAS WT (Homo sapiens) for CCc1c(F)ccc2cc(O)cc(-c3cc4nc(OC[C@@]56CCCN5C[C@H](F)C6)nc(N5CCOC6(COC6)C5)c4c4cn(C)nc34)c12 [Example 199] is 7.00 to 8.00

pIC50 on KRAS WT (Homo sapiens) for CCc1c(F)ccc2cc(O)cc(-c3c(F)c4nc(OC[C@@H]5CCN5C)nc(N5CCOCC(C)(O)C5)c4c4cn(C)nc34)c12 (stereo partly drawn) [Example 158] is ≥ 8.00

----------
pIC50: −log10 of the molar value.
Quick note: these are pIC50 numbers for system: KRAS WT (Homo sapiens, UniProt P01116)
Sequence (P01116 1-188 isoform P01116-2): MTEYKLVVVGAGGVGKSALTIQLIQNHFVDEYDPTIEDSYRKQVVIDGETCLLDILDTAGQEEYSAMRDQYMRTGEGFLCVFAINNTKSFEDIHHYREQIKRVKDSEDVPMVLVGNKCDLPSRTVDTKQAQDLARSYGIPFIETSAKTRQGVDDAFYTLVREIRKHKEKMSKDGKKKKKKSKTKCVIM

pIC50 reading for CCc1c(F)ccc2cc(O)cc(-c3c(C)c4nc(OC[C@@]56CCCN5C[C@H](F)C6)nc(N5CCOCC(C)(O)C5)c4c4cn(C)nc34)c12 (mixture of isomers) : ≥ 8.00

pIC50 reading for "CCc1c(F)ccc2cc(O)cc(-c3cc4nc(OC[C@@]56CCCN5C[C@H](F)C6)nc(N5CCCC6(COC6)C5)c4c4cn(C)nc34)c12" : 5.00 to 7.00

pIC50 reading for CCc1c(F)ccc2cc(O)cc(-c3c(F)c4nc(OCC5(CN6CCC(C#N)C6)CC5)nc(N5CCOCC(C)(O)C5)c4c4cn(C)nc34)c12 (stereo not drawn) : ≥ 8.00

pIC50 reading for CCc1c(F)ccc2cc(O)cc(-c3c(F)c4nc(OCC5(CN6CC(C#N)C6)CC5)nc(N5CCOCC(C)(O)C5)c4c4cn(C)nc34)c12 (stereo not drawn) : ≥ 8.00

pIC50 reading for CCc1c(F)ccc2cc(O)cc(-c3c(F)c4nc(OC[C@]5(C)CCCN5)nc(N5CCOCC(C)(O)C5)c4c4cn(C)nc34)c12 (stereo partly drawn) : ≥ 8.00

pIC50 reading for "CCc1c(F)ccc2cc(O)cc(-c3c(F)c4nc(OC[C@@]56CCCN5C[C@H](F)C6)nc(N5CC6CCC(C5)N6)c4c4cn(C)nc34)c12" : ≥ 8.00

----------
- ASSAYED_SYSTEM: KRAS G12D (Homo sapiens, UniProt P01116, G12D)
- Construct: aa1-188 KRAS WT, HRAS WT, NRAS WT, or KRAS containing the G12D
- EXPERIMENT_DESCRIPTION: HTRF nucleotide exchange assay, KRAS G12D
- ASSAY_CONDITIONS: HTRF nucleotide exchange assay (NEA), class symbols
pIC50: −log10 of the molar value.
MEASUREMENT_TYPE: pIC50

pIC50 reading for CCc1c(F)ccc2cc(O)cc(-c3c(F)c4nc(OCC5(CN6CCOCC6)CC5)nc(N5CCOCC(C)(O)C5)c4c4cn(C)nc34)c12 (stereo not drawn) [Example 162] : ≥ 8.00

pIC50 reading for CCc1c(F)ccc2cc(O)cc(-c3cc4nc(OCC5CCCCN5C)nc(N5CCCOCC5)c4c4cn(C)nc34)c12 (stereo not drawn) [Example 19] : 5.00 to 7.00

pIC50 reading for CCc1c(F)ccc2cc(O)cc(-c3cc4nc(OC[C@@]56CCCN5C[C@H](F)C6)nc(N5CCC(O)C5)c4c4cn(C)nc34)c12 (mixture of isomers) [Example 117] : ≥ 8.00

----------
- ASSAYED_SYSTEM: KRAS G12D (Homo sapiens, UniProt P01116, G12D)
- Construct: aa1-188 KRAS WT, HRAS WT, NRAS WT, or KRAS containing the G12D
- EXPERIMENT_DESCRIPTION: HTRF nucleotide exchange assay, KRAS G12D
- ASSAY_CONDITIONS: HTRF nucleotide exchange assay (NEA), class symbols
I'd be grateful if you could share measured IC50 for these entries.

IC50 reading for CCc1c(F)ccc2cc(O)cc(-c3c(C)c4nc(OCC5(CN(C)C)CC5)nc(N5CCC[C@@](C)(O)C5)c4c4cn(C)nc34)c12 [Example 204] : ≤ 10 nM

IC50 reading for CCc1c(F)ccc2cc(O)cc(-c3c(F)c4nc(OCC5COCCN5C)nc(N5CCOCC(C)(O)C5)c4c4cn(C)nc34)c12 (stereo not drawn) [Example 232] : 10 to 100 nM

IC50 reading for CCc1c(F)ccc2cc(O)cc(-c3cc4nc(OC[C@@]56CCCN5C[C@H](F)C6)nc(N5CCOCC(C)C5)c4c4cn(C)nc34)c12 (stereo partly drawn) [Example 121] : ≤ 10 nM

IC50 reading for CCc1c(F)ccc2cc(O)cc(-c3c(C)c4nc(OC[C@@]56CCCN5C[C@H](F)C6)nc(N5CCCn6nc(C(=O)N(C)C)cc6C5)c4c4cn(C)nc34)c12 [Example 80] : ≤ 10 nM

IC50 reading for CCc1c(F)ccc2cc(O)cc(-c3c(F)c4nc(OCC5(CN6CCC(OC)CC6)CC5)nc(N5CCOCC(C)(O)C5)c4c4cn(C)nc34)c12 (stereo not drawn) [Example 187] : ≤ 10 nM

IC50 reading for CCc1c(F)ccc2cc(O)cc(-c3cc4nc(OC[C@@]56CCCN5C[C@H](F)C6)nc(N5CC6CC(O)C(C6)C5)c4c4cn(C)nc34)c12 (stereo partly drawn) [Example 124] : ≤ 10 nM

IC50 reading for C#Cc1c(F)ccc2cc(O)cc(-c3cc4nc(OC[C@@]56CCCN5C[C@H](F)C6)nc(N5CCOCC(C)(O)C5)c4c4cn(C)nc34)c12 (stereo partly drawn) [Example 11] : ≤ 10 nM

IC50 reading for CCc1c(F)ccc2cc(O)cc(-c3cc4nc(OCC56CCCN5CCC6)nc(N5CCCC(C)(O)C5)c4c4cn(C)nc34)c12 (stereo not drawn) [Example 28] : ≤ 10 nM

IC50 reading for CCc1c(F)ccc2cc(O)cc(-c3c(C)c4nc(OCC5(CN(C)C)CC5)nc(N5CCOCC(C)(O)C5)c4c4cn(C)nc34)c12 (stereo not drawn) [Example 142] : ≤ 10 nM

IC50 reading for CCc1c(F)ccc2cc(O)cc(-c3c(C)c4nc(OC[C@@]56CCCN5C[C@H](F)C6)nc(N5CCOCC(C)(O)C5)c4c4cn(C)nc34)c12 (mixture of isomers) [Example 105] : ≤ 10 nM

IC50 reading for CCc1c(F)ccc2cc(O)cc(-c3cc4nc(OCC56CCCN5CCC6)nc(N5CCOCC(C)(O)C5)c4c4cn(C)nc34)c12 (stereo not drawn) [Example 26] : ≤ 10 nM

IC50 reading for C#Cc1c(F)ccc2cc(O)cc(-c3cc4nc(OC[C@@]56CCCN5C[C@H](F)C6)nc(N5CC6CNCC6C5)c4c4cn(C)nc34)c12 (stereo partly drawn) [Example 34] : ≤ 10 nM

IC50 reading for Cn1cc2c(n1)c(-c1cc(O)ccc1OC(F)(F)F)cc1nc(OC[C@@]34CCCN3C[C@H](F)C4)nc(N3CCCOCC3)c12 [Example 38] : 100 to 10000 nM

IC50 reading for CCc1c(F)ccc2cc(O)cc(-c3c(C)c4nc(OC[C@]5(C)CCCN5C)nc(N5CCOCC(C)(O)C5)c4c4cn(C)nc34)c12 (stereo partly drawn) [Example 148] : ≤ 10 nM

IC50 reading for CCc1c(F)ccc2cc(O)cc(-c3c(F)c4nc(OCC5(C)C[C@@H](O)CN5C)nc(N5CCOCC(C)(O)C5)c4c4cn(C)nc34)c12 (mixture of isomers) [Example 153] : ≤ 10 nM

IC50 reading for CCc1c(F)ccc2cc(O)cc(-c3cc4nc(OC[C@@]56CCCN5C[C@H](F)C6)nc(N5CCCC6(CCO6)C5)c4c4cn(C)nc34)c12 (stereo partly drawn) [Example 125] : 10 to 100 nM

IC50 reading for CCc1c(F)ccc2cc(O)cc(-c3cc4nc(OC[C@@]56CCCN5C[C@H](F)C6)nc(N5CCC5C(C)(C)O)c4c4cn(C)nc34)c12 (stereo partly drawn) [Example 135] : 100 to 10000 nM

IC50 reading for Cn1cc2c(n1)c(-c1cc(O)cc3ccc(F)c(F)c13)cc1nc(OC[C@@]34CCCN3C[C@H](F)C4)nc(N3CCCOCC3)c12 [Example 39] : 10 to 100 nM

IC50 reading for CCc1c(F)ccc2cc(O)cc(-c3cc4nc(OC[C@@]56CCCN5C[C@H](F)C6)nc(N5CCNCC5)c4c4cn(C)nc34)c12 [Example 13] : 10 to 100 nM

IC50 reading for CCc1c(F)ccc2cc(O)cc(-c3cc4nc(OC[C@@]56CCCN5C[C@H](F)C6)nc(N5CCCn6nc(C(=O)N7CCCC7)cc6C5)c4c4cn(C)nc34)c12 [Example 23] : ≤ 10 nM

IC50 reading for CCc1c(F)ccc2cc(O)cc(-c3cc4nc(OC[C@@]56CCCN5C[C@H](F)C6)nc(N5CCCn6nc(CO)cc6C5)c4c4cn(C)nc34)c12 [Example 94] : ≤ 10 nM

IC50 reading for CCc1c(F)ccc2cc(O)cc(-c3c(C)c4nc(OCC5(CN6CCOCC6)CC5)nc(N5CCOCC(C)(O)C5)c4c4cn(C)nc34)c12 (stereo not drawn) [Example 149] : ≤ 10 nM

IC50 reading for CCc1c(F)ccc2cc(O)cc(-c3c(C)c4nc(OCC5(CN6CCCC6)CC5)nc(N5CCOCC(C)(O)C5)c4c4cn(C)nc34)c12 (stereo not drawn) [Example 146] : ≤ 10 nM

IC50 reading for CCc1c(F)ccc2cc(O)cc(-c3c(F)c4nc(OCC5(CN(C)C)CC5)nc(N5CCC[C@@](C)(O)C5)c4c4cn(C)nc34)c12 [Example 230] : ≤ 10 nM
